Every entry's value here was drawn from ChEMBL document CHEMBL1152620.

Observed log10 Ki for Carbonic anhydrase 9 (Homo sapiens), reported per entry below.
Parameter value (number): base-10 log of Ki in nM.

Solved entries:
(Q) Consider the compound CN(CS(=O)(=O)[O-])c1ccc(/N=N/c2ccc(S(N)(=O)=O)cc2)cc1.[Na+] . State its measured log10 Ki.
(A) 0.54

(Q) Read off the recorded log10 Ki for CN(C)c1ccc(/N=N/c2cccc(S(N)(=O)=O)c2)cc1
(A) 0.81

(Q) Specify reported log10 Ki for the compound shown: Nc1ccc(/N=N/c2ccc(S(N)(=O)=O)cc2)cc1
(A) 0.78

(Q) State its log10 Ki: Nc1ccc(/N=N/c2cccc(S(N)(=O)=O)c2)cc1
(A) 0.77

(Q) Kindly indicate its recorded log10 Ki. Item: O=S(=O)(O)CNc1ccccc1 [SODIUM PHENYLAMINOMETHANESULFONATE]
(A) 3.71

---
(Q) Let me know recorded log10 Ki for NS(=O)(=O)c1cccc(/N=N/c2ccc(O)cc2)c1 , thanks.
(A) 0.79
